Where do these numbers come from? They come from ChEMBL document CHEMBL4400556.

Each entry below lists one item and its recorded inhibition value.
- measured.on: 85/88 kDa calcium-independent phospholipase A2 (Homo sapiens) (UniProt O60733)
- Sequence (O60733 whole entry): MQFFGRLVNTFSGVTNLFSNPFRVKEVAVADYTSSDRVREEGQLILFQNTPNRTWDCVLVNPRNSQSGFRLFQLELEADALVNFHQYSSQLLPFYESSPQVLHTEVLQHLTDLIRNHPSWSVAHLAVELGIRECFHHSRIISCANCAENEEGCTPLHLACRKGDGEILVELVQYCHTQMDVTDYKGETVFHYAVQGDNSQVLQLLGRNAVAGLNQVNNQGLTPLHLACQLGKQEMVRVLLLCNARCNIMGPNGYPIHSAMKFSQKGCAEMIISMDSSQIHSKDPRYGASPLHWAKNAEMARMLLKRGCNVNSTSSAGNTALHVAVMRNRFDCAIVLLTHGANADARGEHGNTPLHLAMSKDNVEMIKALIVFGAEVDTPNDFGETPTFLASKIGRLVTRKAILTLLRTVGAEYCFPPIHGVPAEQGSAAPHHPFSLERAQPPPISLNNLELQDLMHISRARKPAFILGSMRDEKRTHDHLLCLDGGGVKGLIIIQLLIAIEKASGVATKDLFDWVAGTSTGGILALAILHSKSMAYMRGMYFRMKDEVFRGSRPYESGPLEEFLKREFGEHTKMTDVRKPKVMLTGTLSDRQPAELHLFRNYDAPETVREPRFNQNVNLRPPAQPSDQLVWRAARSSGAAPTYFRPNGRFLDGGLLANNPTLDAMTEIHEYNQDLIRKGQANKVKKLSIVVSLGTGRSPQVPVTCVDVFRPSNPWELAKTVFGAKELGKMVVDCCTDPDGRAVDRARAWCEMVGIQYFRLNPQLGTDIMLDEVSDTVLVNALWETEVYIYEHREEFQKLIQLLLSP
- procedure.text: Inhibition of human recombinant G6A iPLA2 at 0.091 mole fraction using arachidonyl-1-14C PAPC and PAPC incubated for 30 mins by HPLC-MS analysis based radioactivity-based group specific mixed micelle assay relative to control
Dear colleague, please return just the value in %, with no unit written.

Reference set (3 entries):
>>> df
                                   compound  uom  recorded_value
0  CCC[C@@H]1OC(=O)[C@@H]1CCCc1ccc(OC)cc1 (racemic)    %              85
1  CCC[C@H]1OC(=O)[C@@H]1CCCCc1ccccc1 (racemic)    %             100
2  CCCC1OC(=O)C1CCCCc1ccccc1 (stereo unspecified)    %             100

# returns recorded inhibition (system: 85/88 kDa calcium-independent phospholipase A2 (Homo sapiens) (UniProt O60733)) for CCC[C@H]1OC(=O)[C@@H]1CCCc1ccc2ccccc2c1 (racemic) 98

API: value(readout=inhibition, system=85/88 kDa calcium-independent phospholipase A2 (Homo sapiens) (UniProt O60733)) for record CCC[C@@H]1OC(=O)[C@@H]1CCCc1ccc2ccccc2c1 (racemic) 81

For the record CCCCCCC1OC(=O)C1CCCc1ccccc1 (stereo unspecified) , what value of inhibition is listed for 85/88 kDa calcium-independent phospholipase A2 (Homo sapiens) (UniProt O60733)? 89
